PROTOCOL TEXT: in vivo
RECORDED CONDITIONS: rat, in vivo, po
MEASURED PARAMETER: LD50 at 144 h

Reported LD50 at 144 h of CCCCC1C(=O)NN(c2ccnc3cc(Cl)ccc23)C1=O (stereo not shown) : > 4000 mg/kg
